Source: paper PMC4139342

# measurement-notes: Cytotoxicity against THP1 macrophage cell lines
# Type: cell-based
# assay-conditions: human; THP1 macrophage cell lines; read-out: Cytotoxicity CC50
readout-name: CC50 (µg/mL)
Give bare numbers, in µg/mL.

input: I am curious: what CC50 value has been reported for COc1ccc(C[C@H](N)C(=O)N[C@H]2[C@@H](O)[C@H](n3cnc4c(N(C)C)ncnc43)O[C@@H]2CO)cc1 [Puromycin, reference compound] ?
output: 1.4

* * *

# measurement-notes: In vivo plasma PK after oral dosing in CM-2 formulation
# assay-conditions: female, CD-1, mouse, plasma, po, 50 mg/kg
Field: half-life. Provide a value for each of the compounds that follow.
Answers are plain numbers, in h.

structure-smiles-string | experimental-value
O=C(CO[C@@H]1COc2nc([N+](=O)[O-])cn2C1)N1CCN(c2ccc(C(F)(F)F)cn2)CC1 | 3.6

Switching to the query record.
input: # query: half-life of entry O=C(CO[C@@H]1COc2nc([N+](=O)[O-])cn2C1)N1CCN(c2ccc(OC(F)(F)F)cc2)CC1
output: 2.1

* * *

Assignment: determine reported half-life for the given compounds.
# measurement-notes: In vivo lung PK after oral dosing
# assay-conditions: female, CD-1, mouse, 25 mg/kg
Numbers only, in h.

Some solved entries appear below for comparison.
compound | readout-name | experimental-value
O=[N+]([O-])c1cn2c(n1)OC[C@@H](NCc1ccc(OC(F)(F)F)c(Cl)c1)C2 | half-life | 3.3
O=[N+]([O-])c1cn2c(n1)OC[C@@H](NCc1ccc(OC(F)(F)F)c(F)c1)C2 | half-life | 2.5
CC[C@H]1Oc2nc([N+](=O)[O-])cn2C[C@@H]1NCc1ccc(-c2ccc(OC(F)(F)F)cc2)cc1 | half-life | 4.6
O=[N+]([O-])c1cn2c(n1)OC1(CC1)C(OCc1ccc(OC(F)(F)F)cc1)C2 (stereo not drawn) | half-life | 4.1
CC[C@@H]1Oc2nc([N+](=O)[O-])cn2C[C@@H]1NCc1ccc(OC(F)(F)F)cc1 | half-life | 2.7
CC[C@H]1Oc2nc([N+](=O)[O-])cn2C[C@@H]1NCc1ccc(OC(F)(F)F)cc1 | half-life | 1.9

Items follow; give half-life for each.
1. CC[C@@H]1Oc2nc([N+](=O)[O-])cn2C[C@@H]1OCc1ccc(OC(F)(F)F)cc1
2. CC[C@@H]1Oc2nc([N+](=O)[O-])cn2C[C@@H]1NCc1ccc(OC(F)(F)F)c(F)c1
3. O=[N+]([O-])c1cn2c(n1)OC[C@@H](OCc1ccc(OC(F)(F)F)cc1)C2 [PA-824, reference compound]

output:
[4.1, 4.3, 4.8]

* * *

# measurement-notes: In vivo lung PK after oral dosing
# assay-conditions: female, CD-1, mouse, 10 mg/kg
readout-name: half-life (h)
Give bare numbers, in h.

structure-smiles-string | half-life, h
O=[N+]([O-])c1cn2c(n1)OC[C@@H](NCc1ccc(OC(F)(F)F)cc1)C2 | 1.3

input: Entry O=[N+]([O-])c1cn2c(n1)OC[C@@H](NCCc1ccc(OC(F)(F)F)cc1)C2 has what half-life?
output: 1.2

* * *

Could you please report measured PAMPA %FA for the items listed next?
Numbers only, in %.

Take a look at these entries with their results.
molecule | experimental-value
O=[N+]([O-])c1cn2c(n1)OC[C@@H](NCc1ccc(OC(F)(F)F)c(F)c1)C2 | 83
O=[N+]([O-])c1cn2c(n1)OC[C@@H](NCc1ccc(OC(F)(F)F)cc1)C2 | 91
CC[C@@H]1Oc2nc([N+](=O)[O-])cn2C[C@@H]1NCc1ccc(OC(F)(F)F)cc1 | 99
O=C(CO[C@@H]1COc2nc([N+](=O)[O-])cn2C1)N1CCN(c2ccc(C(F)(F)F)cn2)CC1 | 83

input: Value lookup for PAMPA %FA; key = O=[N+]([O-])c1cn2c(n1)OC1(CC1)C(OCc1ccc(OC(F)(F)F)cc1)C2 (centres unmarked)
output: 99

* * *

# Test system: Mtb H37Rv
# measurement-notes: In vivo mouse efficacy, established murine TB model
# Design: species or system Balb/c mice
# assay-conditions: 100 mg/kg oral daily for 4 weeks, 5 animals
# Experimental: In vivo mouse efficacy studies were determined after intranasal infection of Balb/c mice with 10^3 cfu Mtb H37Rv. Treatment was initiated 4 weeks after infection. Compounds were orally administered in CM-2 formulation for 4 weeks daily. Bacterial loads were determined at 2 and 4 weeks post treatment. […]
Kindly supply the reported Mean log lung CFU ± SEM values for the records listed here.

Some solved cases for reference:
molecule | experimental-value
O=C(CO[C@@H]1COc2nc([N+](=O)[O-])cn2C1)N1CCN(c2ccc(C(F)(F)F)cn2)CC1 | 6.09±0.07 log CFU
O=C(CO[C@@H]1COc2nc([N+](=O)[O-])cn2C1)N1CCN(c2ccc(OC(F)(F)F)cc2)CC1 | 5.85±0.11 log CFU
O=[N+]([O-])c1cn2c(n1)OC[C@@H](NCc1ccc(OC(F)(F)F)c(F)c1)C2 | 4.18±0.17 log CFU
O=[N+]([O-])c1cn2c(n1)OC[C@@H](NCc1ccc(OC(F)(F)F)c(Cl)c1)C2 | 4.36±0.07 log CFU
O=[N+]([O-])c1cn2c(n1)OC1(CC1)C(OCc1ccc(OC(F)(F)F)cc1)C2 (centres unmarked) | 4.45±0.22 log CFU
O=[N+]([O-])c1cn2c(n1)OC[C@@H](NCCc1ccc(OC(F)(F)F)cc1)C2 | 4.53±0.07 log CFU
O=[N+]([O-])c1cn2c(n1)OC[C@@H](NCc1ccc(OC(F)(F)F)cc1)C2 | 5.14±0.08 log CFU

In the following, a different molecule is considered.
input: Returns the measured Mean log lung CFU ± SEM for the input molecule. Input: CC[C@H]1Oc2nc([N+](=O)[O-])cn2C[C@@H]1NCc1ccc(OC(F)(F)F)cc1
output: 4.81±0.18 log CFU

* * *

# measurement-notes: in vitro
# assay-conditions: human, Caco-2
Please note: YES applies when efflux ratio is 0.8 or greater, and NO applies otherwise.

molecule | category
O=[N+]([O-])c1cn2c(n1)OC[C@@H](NCc1ccc(OC(F)(F)F)cc1)C2 [Amino-824] | NO
O=C(CO[C@@H]1COc2nc([N+](=O)[O-])cn2C1)N1CCN(c2ccc(OC(F)(F)F)cc2)CC1 [NI-622] | YES
O=C(CO[C@@H]1COc2nc([N+](=O)[O-])cn2C1)N1CCN(c2ccc(C(F)(F)F)cn2)CC1 [NI-644] | YES
O=[N+]([O-])c1cn2c(n1)OC[C@@H](NCCc1ccc(OC(F)(F)F)cc1)C2 [AminoEthyl-824] | YES
O=[N+]([O-])c1cn2c(n1)OC[C@@H](NCc1ccc(OC(F)(F)F)c(Cl)c1)C2 [NI-135] | NO

Read the next record carefully.
input: Is it the case that O=[N+]([O-])c1cn2c(n1)OC1(CC1)C(OCc1ccc(OC(F)(F)F)cc1)C2 (stereo not drawn) [NI-302] has efflux ratio reaching or exceeding 0.8?
output: NO

* * *

# measurement-notes: in vivo
# assay-conditions: female, CD-1, mouse, po, 10 mg/kg, Lung to Plasma ratio AUC24
readout-name: Kp
Answers are plain numbers.

structure-smiles-string | Kp
O=[N+]([O-])c1cn2c(n1)OC[C@@H](NCc1ccc(OC(F)(F)F)cc1)C2 | 0.8

input: What does the data say about its Kp? Entry: O=[N+]([O-])c1cn2c(n1)OC[C@@H](NCCc1ccc(OC(F)(F)F)cc1)C2
output: 1.8

* * *

# measurement-notes: physchem
Consider the following compounds; for each one, report its logP.
Numbers only.

I would be grateful if you could provide logP for each of the following entries.
1. O=[N+]([O-])c1cn2c(n1)OC[C@@H](NCc1ccc(OC(F)(F)F)c(Cl)c1)C2
2. O=[N+]([O-])c1cn2c(n1)OC[C@@H](OCc1ccc(OC(F)(F)F)cc1)C2 [PA-824, reference compound]
3. O=C(CO[C@@H]1COc2nc([N+](=O)[O-])cn2C1)N1CCN(c2ccc(C(F)(F)F)cn2)CC1
4. O=C(CO[C@@H]1COc2nc([N+](=O)[O-])cn2C1)N1CCN(c2ccc(OC(F)(F)F)cc2)CC1
5. CC[C@H]1Oc2nc([N+](=O)[O-])cn2C[C@@H]1NCc1ccc(OC(F)(F)F)cc1
6. O=[N+]([O-])c1cn2c(n1)OC[C@@H](NCCc1ccc(OC(F)(F)F)cc1)C2

output:
[3, 2.75, 2.6, 2.9, 3.05, 3.6]

* * *

Give half-life for every item shown.
# measurement-notes: In vivo plasma PK after intravenous dosing
# assay-conditions: female, CD-1, mouse, plasma, iv, 10 mg/kg, T1/2 (i.v), mice, i.v. dosing at 10 mg/kg
One number for each entry, in h.

structure-smiles-string | experimental-value
O=C(CO[C@@H]1COc2nc([N+](=O)[O-])cn2C1)N1CCN(c2ccc(OC(F)(F)F)cc2)CC1 | 1.8

input: What value of half-life has been reported for the following compound? O=[N+]([O-])c1cn2c(n1)OC[C@@H](NCc1ccc(OC(F)(F)F)cc1)C2
output: 2
